Target: T1, CRBN, Q96SW2;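 also: pooled lentiviral library of zinc finger degron-EGFP fusions in mCherry-positive Jurkat cells, FACS-sorted after compound exposure, with degron abundance counted by next-generation sequencing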
T1 chain: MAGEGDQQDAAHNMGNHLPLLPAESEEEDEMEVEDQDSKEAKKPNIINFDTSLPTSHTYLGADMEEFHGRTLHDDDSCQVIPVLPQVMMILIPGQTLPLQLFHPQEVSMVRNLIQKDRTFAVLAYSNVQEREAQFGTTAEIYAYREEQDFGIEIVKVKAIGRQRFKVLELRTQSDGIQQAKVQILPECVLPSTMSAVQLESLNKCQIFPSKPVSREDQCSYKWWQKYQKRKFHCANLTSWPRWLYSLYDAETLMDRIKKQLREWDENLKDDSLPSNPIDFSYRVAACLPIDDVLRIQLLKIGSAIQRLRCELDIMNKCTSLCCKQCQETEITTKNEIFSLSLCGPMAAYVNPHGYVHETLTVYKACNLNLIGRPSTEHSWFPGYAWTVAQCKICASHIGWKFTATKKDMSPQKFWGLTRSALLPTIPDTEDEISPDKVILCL
Assay: log2 fold change of degron read counts, EGFP-low vs EGFP+ sorted cells (limma voom), compound-induced degradation; higher = more compound-induced degradation of the degron-EGFP fusion; degrons are variants of IKZF1/3 zinc finger 2; compound dose not given here
Conditions: Jurkat; 18 h; compound: thalidomide
Over roughly 8,300 sequences, “log2 fold change of degron read counts, EGFP-low vs EGFP+ sorted cells (limma voom), compound-induced degradation” has its median near -1.1; the highest 2% begin near 3.2. This excerpt belongs to a sample that is enriched for the highest values.
parameter measured: log2 fold change of degron read counts
Give the figure only, with no unit attached.

Known log2 fold change of degron read counts results, listed for orientation:
INSERT INTO assay_data (primary_sequence, quantitative_result) VALUES
  ('FTCEVCGARFTQKGNLLRHIKL [46F_47T_49E_50V_52G_53A_54R_55F_67L_, Q9UKT9]', 3.26),
  ('FDCNVCGALFTQKGNLLRHIKL [46F_47D_49N_50V_52G_53A_54L_55F_67L_, Q9UKT9]', -0.856),
  ('FCCNQCGHDFTQKGNLLRHIKL [46F_47C_49N_50Q_52G_53H_54D_55F_67L_, Q9UKT9]', -2.8),
  ('FACNICGAGFTQKGNLLRHIKL [46F_47A_49N_50I_52G_53A_54G_55F_67L_, Q9UKT9]', -0.984),
  ('FSCEVCGARFTQKGNLLRHIKL [46F_47S_49E_50V_52G_53A_54R_55F_67L_, Q9UKT9]', 2.08);

# get_value(readout='log2 fold change of degron read counts', item= FECPVCGAKFTQKGNLLRHIKL [46F_47E_49P_50V_52G_53A_54K_55F_67L_, Q9UKT9] )
2.62

Proceed to FTCEVCGALFTQKGNLLRHIKL [46F_47T_49E_50V_52G_53A_54L_55F_67L_, Q9UKT9]
0.612
